System: Fer (mouse);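 note: 11-residue human phosphosite peptides and single-mutation variants displayed on the E. coli surface, counted by deep sequencing, each peptide's frequency after selection divided by its frequency in the unselected input library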;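 note: frequency after pTyr selection over input frequency; kinase dosed for 20-30% of maximal phosphorylation in three min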
Assay: phosphorylation enrichment, bacterial display (enrichment ratio); higher = better substrate or ligand; peptides without Tyr show the background
propertyMeasured: phosphorylation enrichment
# output: bare number, no unit

For the sequence EGQKIYIDDNN [PIP4K2A_Y246] , what phosphorylation enrichment is on record?
0.484

For the sequence KKFPDYIQIAR [SGMS2_Y59_M64R_YF] , what phosphorylation enrichment is on record?
0.399

For the sequence YAKSVYWDNTL [NUP107_Y296_E298D] , what phosphorylation enrichment is on record?
0.871

For the sequence FEEDPYLVVNP [MCM6_Y810_YF] , what phosphorylation enrichment is on record?
0.886

For the sequence QLLIEYPPEEV [ZZZ3_Y670_K669E] , what phosphorylation enrichment is on record?
0.671

For the sequence KKKKQYKDKFL [CASK_Y708_YF] , what phosphorylation enrichment is on record?
0.502

For the sequence SLLVVYPWTQR [HBB_Y36_R31S] , what phosphorylation enrichment is on record?
0.398

For the sequence CTTIHYDYMCN [TP53_Y234_N235D] , what phosphorylation enrichment is on record?
1.17

For the sequence TFGVVYKARNK [CDK2_Y19_YF] , what phosphorylation enrichment is on record?
0.481

For the sequence EGWQVYRLGAR [MISP_Y95] , what phosphorylation enrichment is on record?
0.396

For the sequence KHTLSFVDVGT [SDHA_Y629_Y629F] , what phosphorylation enrichment is on record?
0.371

For the sequence DNEAIYDICRC [TUBA4A_Y210_R215C] , what phosphorylation enrichment is on record?
7.98

For the sequence TIQMMYGCDVG [HLA-A_Y123_I121M] , what phosphorylation enrichment is on record?
0.532

For the sequence PNRILYRDFRQ [MYH7_Y715_G716R] , what phosphorylation enrichment is on record?
0.373

For the sequence LFSINYLHFGE [KDM4C_Y201_YF] , what phosphorylation enrichment is on record?
0.822
